As shown below, each of these variants has a reported protein stability index value.
B1: PPEF2 (parent)
chain: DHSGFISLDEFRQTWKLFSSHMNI

# Variants of: B1
# METHOD: protein stability index of a GFP-peptide fusion (GPS, HEK-293T) (PSI 1-6); higher = more stable;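 also: lentivirally expressed fusions sorted by FACS into six bins by GFP to DsRed ratio, PSI derived from sequencing read proportions per bin multiplied by bin number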
# CONDITION_NOTES: c terminus: a fixed tail appended
PROPERTY_LABEL: protein stability index

# VARIANT_NAME, EXPERIMENTAL_RESULT
rows = [
    ("H2I", 1.91),
    ("Q13S", 2.13),
    ("T14Y", 1.49),
    ("F18P", 1.96),
    ("N23L", 2.3),
    ("F11R", 2.01),
    ("D1A", 1.51),
    ("M22Y", 2.21),
    ("S20A", 2.14),
    ("R12Q", 1.38),
    ("D1Y", 2.58),
    ("I6Y", 1.89),
    ("F5M", 1.4),
    ("D1K", 2.64),
    ("F11C", 1.94),
    ("D9Y", 1.51),
    ("H2S", 1.92),
    ("R12Y", 2.69),
    ("I6E", 1.66),
    ("H2C", 1.75),
    ("S20D", 2.15),
    ("L17R", 1.62),
]
